Biological target: Cytochrome P450 2C19 (Homo sapiens)
Assay: blockers of cytochrome P450 2C19 activity – biochemical, luminescence, ADME assay, primary screen (AID 778);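 note: plate controls were negative control wells for no effect and 2.5 mM tranylcypromine positive control for full effect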
Details: CYP2C19 Supersomes, luciferin-H EGE luminescence, 30 min; at 5 µM; hits give high values
The campaign covered roughly 96,000 compounds. About 20,000 (21%) were called active. These entries were drawn from the full list.
Kindly supply the reported inhibition values for the records listed here.
Give bare numbers, in %.

Below are some compounds; for each one, tell me its inhibition.
1. FC(F)Oc1ccccc1C1CC(c2ccc(Br)s2)Nc2ncnn21 (stereo unspecified)
2. c1ccc(CSc2ncnc3c2sc2nc(N4CCOCC4)c4c(c23)CCCC4)cc1
3. Cc1ccccc1N1C(=O)C2ON(c3ccccc3)C(c3ccncc3)C2C1=O (stereo unspecified)

-- reply
98.5
4
94.6

Below are some compounds; for each one, tell me its inhibition.
1. CCCCN(C)C(=O)C1CCN(Cc2ccccn2)CC1
2. COc1cc(C2C3C(=O)N(c4ccccc4)C(=O)C3ON2c2ccccc2)ccc1O (stereo unspecified)
3. O=C(Cn1nnc(-c2ccc(CN3CCOCC3)cc2)n1)NC1CCCCC1
4. CC1(C)CC(=O)NC=C(c2ccccc2)C1
5. CC1COC2C(O1)N(S(C)(=O)=O)CCN2S(C)(=O)=O (stereo unspecified)
6. O=c1c([N+](=O)[O-])cc(C(F)(F)F)cn1Cc1cccc(Cl)c1
7. Cc1cc(C)cc(OCc2nnc(SCC(=O)OC3CCCCC3)o2)c1

-- reply
[-6.2, 58.5, 9, 23.8, -4.9, 24.2, 4.2]

-- ask State the recorded inhibition for this entry: COc1cc(C2C(C(=O)Nc3ccccc3OC)=C(C)Nc3ncnn32)ccc1O (stereo unspecified)
-- reply -5

The measured values listed here are drawn from PubChem BioAssay AID778.
